Numbers sourced from ChEMBL document CHEMBL4831477.

experiment: Distribution coefficient, logD of the compound at pH 7.4 by LC-MS based shake-flask method; format: physicochemical; conditions: octanol/water, read-out: logD
reported metric: logD
Reply: number alone, nothing else.

## Input Please look at this compound and report its logD: O=C1CCc2cccc(c2)OCCCC/C=C/CCCC(=O)Nc2nnc(s2)CCCCc2ccc(nn2)N1
## Output 4.29

## Input Please look at this compound and report its logD: O=C1Cc2cccc(c2)OC/C=C/COc2cccc(c2)CC(=O)Nc2nnc(s2)CCCCc2ccc(nn2)N1
## Output 2.79

## Input Please look at this compound and report its logD: O=C1Cc2cccc(c2)OCCC/C=C/CCCOc2cccc(c2)CC(=O)Nc2nnc(s2)CCCCc2ccc(nn2)N1
## Output 3.48

## Input Please look at this compound and report its logD: O=C1Cc2ccc(cc2)OCCC/C=C/CCCOc2ccc(cc2)CC(=O)Nc2nnc(s2)CCCCc2nnc(s2)N1
## Output 3.62

## Input Please look at this compound and report its logD: O=C1CC/C=C/CCC(=O)Nc2cccc(c2)CC(=O)Nc2nnc(s2)CCCCc2ccc(nn2)NC(=O)Cc2cccc(c2)N1
## Output 2.53

## Input Please look at this compound and report its logD: O=C1Cc2cccc(c2)OCCCC/C=C/CCCCOc2cccc(c2)CC(=O)NC2=NN=C(CCCCC3=NN=C(N1)S3)S2
## Output 3.85

## Input Please look at this compound and report its logD: O=C1Cc2cccc(c2)OCC/C=C/CCOc2cccc(c2)CC(=O)NC2=NN=C(CCCCC3=NN=C(N1)S3)S2
## Output 3.16

## Input Please look at this compound and report its logD: O=C1Cc2cccc(c2)OCC/C=C/CCOc2cccc(c2)CC(=O)Nc2nnc(s2)CCCCc2ccc(nn2)N1
## Output 3.13

## Input Please look at this compound and report its logD: O=C1CCc2cccc(c2)OCC/C=C/CCCC(=O)Nc2nnc(s2)CCCCc2ccc(nn2)N1
## Output 3.08

## Input Please look at this compound and report its logD: O=C(Cc1ccccc1)Nc1nnc(CCSCCc2nnc(NC(=O)Cc3ccccc3)s2)s1
## Output 2.86

## Input Please look at this compound and report its logD: O=C1Cc2ccc(cc2)OC/C=C/COc2ccc(cc2)CC(=O)Nc2nnc(s2)CCCCc2nnc(s2)N1
## Output 2.98

## Input Please look at this compound and report its logD: O=C1Cc2ccccc2OCCCC/C=C/CCCCOc2cccc(c2)CC(=O)Nc2nnc(s2)CCCCc2ccc(nn2)N1
## Output 3.72

## Input Please look at this compound and report its logD: O=C1Cc2cccc(c2)OC/C=C/COc2cccc(c2)CC(=O)NC2=NN=C(CCCCC3=NN=C(N1)S3)S2
## Output 2.9

## Input Please look at this compound and report its logD: O=C1Cc2ccc(cc2)OCC/C=C/CCOc2ccc(cc2)CC(=O)Nc2nnc(s2)CCCCc2nnc(s2)N1
## Output 3.52

## Input Please look at this compound and report its logD: O=C1Cc2ccc(cc2)OCCCC/C=C/CCCCOc2ccc(cc2)CC(=O)Nc2nnc(s2)CCCCc2nnc(s2)N1
## Output 3.91

## Input Please look at this compound and report its logD: O=C1Cc2cccc(c2)OCCC/C=C/CCCOc2cccc(c2)CC(=O)NC2=NN=C(CCCCC3=NN=C(N1)S3)S2
## Output 3.49

## Input Please look at this compound and report its logD: O=C1CCCC/C=C/CCCCOc2cccc(c2)CCC(=O)Nc2nnc(s2)CCCCc2ccc(nn2)N1
## Output 3.89

====

For each of the compounds below, state its microsomal CLint at 10 µM.
experiment: Metabolic stability in human liver microsomes assessed as clearance at 10 uM preincubated for 5 mins followed by NADPH addition by LC-MS/MS analysis; assay type: ADME, Microsome; conditions: read-out: CLH
Give the number; µL/min/mg is assumed, so skip it.

## Input Please look at this compound and report its microsomal CLint at 10 µM: O=C(Cc1cccc(OC(F)(F)F)c1)Nc1ccc(CCCCc2nnc(NC(=O)Cc3ccccn3)s2)nn1
## Output 9.7

## Input Please look at this compound and report its microsomal CLint at 10 µM: O=C1Cc2cccc(c2)OCC/C=C/CCOc2cccc(c2)CC(=O)Nc2nnc(s2)CCCCc2ccc(nn2)N1
## Output 3.2

====

assay: Cmax in BALB/c nude mouse plasma xenografted with human HCT-116 cells at 200 mg/kg, po administered twice daily for 28 days; type: ADME, organism-based; parameters: route oral, time 28 day, dose 200 mg/kg
reported metric: Cmax (nM)
Give the number; nM is assumed, so skip it.

## Input Please look at this compound and report its Cmax: O=C1Cc2cccc(c2)OCC/C=C/CCOc2cccc(c2)CC(=O)Nc2nnc(s2)CCCCc2ccc(nn2)N1
## Output 1630

## Input Please look at this compound and report its Cmax: O=C(Cc1cccc(OC(F)(F)F)c1)Nc1ccc(CCCCc2nnc(NC(=O)Cc3ccccn3)s2)nn1
## Output 3010

====

test: AUC(0 to t) in Sprague-Dawley rat at 5 mg/kg, iv measured upto 72 hrs by LC-MS/MS analysis; type: ADME, organism-based; design: route intravenous, dose 5 mg/kg, time <=72; conditions: in vivo
reported metric: AUC(0-t) at 72 h (ng·h/mL)
Give the number; ng·h/mL is assumed, so skip it.

## Input Please look at this molecule and report its AUC(0-t) at 72 h: O=C1Cc2cccc(c2)OCC/C=C/CCOc2cccc(c2)CC(=O)Nc2nnc(s2)CCCCc2ccc(nn2)N1
## Output 1630

## Input Please look at this molecule and report its AUC(0-t) at 72 h: O=C(Cc1cccc(OC(F)(F)F)c1)Nc1ccc(CCCCc2nnc(NC(=O)Cc3ccccn3)s2)nn1
## Output 2380

====

Target: Glutaminase kidney isoform, mitochondrial (Homo sapiens) (UniProt O94925)
Sequence (whole entry): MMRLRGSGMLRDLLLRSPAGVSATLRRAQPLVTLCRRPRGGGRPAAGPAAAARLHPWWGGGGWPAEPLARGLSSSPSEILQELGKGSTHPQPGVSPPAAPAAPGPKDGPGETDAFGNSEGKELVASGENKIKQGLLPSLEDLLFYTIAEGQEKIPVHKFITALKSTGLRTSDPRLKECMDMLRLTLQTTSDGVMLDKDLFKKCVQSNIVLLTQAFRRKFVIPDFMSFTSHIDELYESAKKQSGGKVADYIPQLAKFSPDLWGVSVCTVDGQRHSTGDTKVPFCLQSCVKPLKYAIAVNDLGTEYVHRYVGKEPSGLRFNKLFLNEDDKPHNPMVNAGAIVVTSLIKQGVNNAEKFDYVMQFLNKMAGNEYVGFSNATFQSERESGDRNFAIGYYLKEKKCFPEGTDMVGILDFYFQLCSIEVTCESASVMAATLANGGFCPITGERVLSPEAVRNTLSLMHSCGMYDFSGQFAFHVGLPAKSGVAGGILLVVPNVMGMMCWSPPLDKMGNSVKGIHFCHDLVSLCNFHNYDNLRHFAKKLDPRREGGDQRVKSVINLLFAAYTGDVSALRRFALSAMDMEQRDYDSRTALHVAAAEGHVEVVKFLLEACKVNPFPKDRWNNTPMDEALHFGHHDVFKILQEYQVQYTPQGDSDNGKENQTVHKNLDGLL
For each of the compounds below, state its ΔTm.
Give the number; °C is assumed, so skip it.

## Input Give ΔTm only, for O=C1CC/C=C/CCC(=O)Nc2cccc(c2)CC(=O)Nc2nnc(s2)CCCCc2ccc(nn2)NC(=O)Cc2cccc(c2)N1 , using Glutaminase kidney isoform, mitochondrial (Homo sapiens) (UniProt O94925) data.
## Output 15.9

## Input Give ΔTm only, for O=C1Cc2cccc(c2)OCCC/C=C/CCCOc2cccc(c2)CC(=O)NC2=NN=C(CCCCC3=NN=C(N1)S3)S2 , using Glutaminase kidney isoform, mitochondrial (Homo sapiens) (UniProt O94925) data.
## Output 16.7

## Input Give ΔTm only, for O=C1Cc2cccc(c2)OCCCC/C=C/CCCCOc2cccc(c2)CC(=O)NC2=NN=C(CCCCC3=NN=C(N1)S3)S2 , using Glutaminase kidney isoform, mitochondrial (Homo sapiens) (UniProt O94925) data.
## Output 16.6

## Input Give ΔTm only, for O=C1Cc2cccc(c2)OC/C=C/COc2cccc(c2)CC(=O)Nc2nnc(s2)CCCCc2ccc(nn2)N1 , using Glutaminase kidney isoform, mitochondrial (Homo sapiens) (UniProt O94925) data.
## Output 17.2

## Input Give ΔTm only, for O=C1Cc2ccc(cc2)OC/C=C/COc2ccc(cc2)CC(=O)Nc2nnc(s2)CCCCc2nnc(s2)N1 , using Glutaminase kidney isoform, mitochondrial (Homo sapiens) (UniProt O94925) data.
## Output 16.1

## Input Give ΔTm only, for O=C1Cc2ccc(cc2)OCC/C=C/CCOc2ccc(cc2)CC(=O)Nc2nnc(s2)CCCCc2nnc(s2)N1 , using Glutaminase kidney isoform, mitochondrial (Homo sapiens) (UniProt O94925) data.
## Output 13.9

## Input Give ΔTm only, for O=C1CCCC/C=C/CCCCOc2cccc(c2)CCC(=O)Nc2nnc(s2)CCCCc2ccc(nn2)N1 , using Glutaminase kidney isoform, mitochondrial (Homo sapiens) (UniProt O94925) data.
## Output 16.3

## Input Give ΔTm only, for O=C1Cc2cccc(c2)OCCC/C=C/CCCOc2cccc(c2)CC(=O)Nc2nnc(s2)CCCCc2ccc(nn2)N1 , using Glutaminase kidney isoform, mitochondrial (Homo sapiens) (UniProt O94925) data.
## Output 18.3
